// provenance: ChEMBL document CHEMBL3739347

# Test system: Puccinia triticina
# experimental_details: Antifungal activity against Puccinia recondita f. sp. tritici infected in wheat seedlings at 40 ppm relative to control
# Format: functional
Quick rule for you: Activity under 80% gets 1, anything else gets -1.

Reference set, count: 8
Bench note: check whether `CC(C)Cn1c(C(C)(C)C)c(Cl)nc(-n2cccn2)c1=O` shows Activity below 80%
1

For this compound, is Activity lower than 80%? `CC[C@H](C)Cn1c(-c2c(F)cc(OCCCNC)cc2F)c(Cl)nc(-n2cccn2)c1=O.Cl`
-1

Identify whether the compound `CC(C)Cn1c(-c2c(F)ccc(F)c2F)c(Cl)nc(-n2cccn2)c1=O` records Activity below 80%.
-1

# strict comparison: is reported Activity < 80%? input = `Cc1ccn(-c2nc(Cl)c(-c3c(F)cccc3F)n(CC(C)C)c2=O)n1`
-1

I wonder whether `CC(C)Cn1c(-c2c(F)cc(F)cc2F)c(Cl)nc(-n2cccn2)c1=O` has Activity below 80%. Can you tell?
-1

Does `CC[C@H](C)Cn1c(-c2c(F)cc(OCCN(C)C)cc2F)c(Cl)nc(-n2cccn2)c1=O` have Activity strictly under 80%?
-1

Say whether its Activity is strictly beneath 80%. Entry: `CC(C)Cn1c(-c2c(F)cccc2F)c(Cl)nc(-c2ccccn2)c1=O`
-1

Just wondering, is Activity of `CC[C@H](C)Cn1c(-c2c(F)cccc2F)c(Cl)nc(C(N)=O)c1=O` below 80%?
-1

***
Lab note: Activity threshold 80%. Does this compound come in strictly under it? `CC(=O)Nc1nc(Cl)c(-c2c(F)cccc2F)n(CC(C)C)c1=O`
-1

Could you please tell me whether Activity recorded for `CC[C@H](C)Cn1c(-c2c(F)cc(F)cc2F)c(Cl)nc(-n2cccn2)c1=O` is less than 80%?
-1

Is 80% strictly greater than the compound's reported Activity? compound: `CC[C@H](C)Cn1c(-c2c(F)cccc2F)c(Cl)nc(-n2ccnc2)c1=O`
1

Criterion: Activity strictly below 80%. Is it met by `CC(C)Cn1c(C(C)C)c(Cl)nc(-n2cccn2)c1=O` ?
1

Answer whether the compound `O=c1c(-n2cccn2)nc(Cl)c(-c2c(F)cc(F)cc2F)n1-c1ccccc1` has Activity strictly less than 80%
-1

I'd appreciate it if you could check whether `CC(C)Cn1c(-c2c(F)cccc2F)c(Cl)nc(-c2nccs2)c1=O` has Activity smaller than 80%.
1

For this compound, is Activity lower than 80%? `CC[C@H](C)Cn1c(-c2c(F)cccc2F)c(Cl)nc(-n2nc(C)cc2C)c1=O`
1

Bench note: check whether `CC[C@H](C)Cn1c(-c2c(F)cccc2F)c(Cl)nc(-n2ccnn2)c1=O` shows Activity below 80%
1

Could you please tell me whether Activity recorded for `CC(C)Cn1c(-c2c(F)cccc2F)c(Cl)nc(-c2cn(C)cn2)c1=O` is less than 80%?
-1

# TODO verify Activity < 80% strictly for this compound: `O=c1c(-n2cccn2)nc(Cl)c(-c2c(F)cc(F)cc2F)n1CC(F)(F)C(F)(F)C(F)(F)F`
-1

Item CCC(C)Cn1c(-c2c(F)cc(F)cc2F)c(Cl)nc(-n2cccn2)c1=O (centres undefined) : Activity beneath 80%, strictly?
-1

API: query returns whether the compound falls strictly under 80% in Activity. Query: `O=c1c(-n2cccn2)nc(Cl)c(-c2c(F)cc(F)cc2F)n1-c1cccc(Cl)c1`
-1
